Consider the following compounds; for each one, report its inhibition.
Test system: Escherichia coli
Assay summary: Inhibition of Escherichia coli OGDHc E1 subunit assessed as DCPIP reduction at 250 uM preincubated for 60 mins followed by […] addition using 125 uM ThDP as substrate by microplate reader analysis

# map each compound to its inhibition
1. COc1ccc(-c2cn(CCc3cn(Cc4cnc(C)nc4N)nn3)nn2)cc1
2. Cc1ncc(Cn2cc(CCCn3cc(-c4ccccc4)nn3)nn2)c(N)n1
3. Cc1ncc(Cn2cc(CCCCn3cc(-c4ccc(F)cc4)nn3)nn2)c(N)n1
4. COc1ccc(-c2cn(CCCCc3cn(Cc4cnc(C)nc4N)nn3)nn2)cc1
5. Cc1ncc(Cn2cc(CCCCn3cc(-c4ccccc4)nn3)nn2)c(N)n1
6. COc1ccc(-c2cn(CCCc3cn(Cc4cnc(C)nc4N)nn3)nn2)cc1

< 20%
< 20%
< 20%
< 20%
< 20%
< 20%

For the 2 compounds below, give their inhibition values.
1. Cc1ncc(Cn2cc(CCn3cc(-c4ccccc4)nn3)nn2)c(N)n1
2. Cc1ncc(Cn2cc(CCn3cc(-c4ccc(F)cc4)nn3)nn2)c(N)n1

1: < 20%; 2: < 20%

Any idea what its inhibition is? The compound is "Cc1ncc(Cn2cc(CCCn3cc(-c4ccc(F)cc4)nn3)nn2)c(N)n1"
< 20%

====

Tested on: Aerococcus viridans
Assay summary: Inhibition of Aerococcus viridans pyruvate oxidase at 250 uM preincubated for 30 mins followed by pyruvate addition using 125 uM ThDP as substrate by microplate reader analysis
Field: inhibition. Provide a value for each of the compounds that follow.

Some entries whose results are on file:
COc1ccc(-c2cn(CCCCc3cn(Cc4cnc(C)nc4N)nn3)nn2)cc1 = < 20%
Cc1ncc(Cn2cc(CCCCn3cc(-c4ccccc4)nn3)nn2)c(N)n1 = < 20%
Cc1ncc(Cn2cc(CCCn3cc(-c4ccc(F)cc4)nn3)nn2)c(N)n1 = < 20%
Cc1ncc(Cn2cc(CCCCn3cc(-c4ccc(F)cc4)nn3)nn2)c(N)n1 = < 20%

Hi there! I need inhibition for each item below, if you can.
1. Cc1ncc(Cn2cc(CCCn3cc(-c4ccccc4)nn3)nn2)c(N)n1
2. Cc1ncc(Cn2cc(CCn3cc(-c4ccccc4)nn3)nn2)c(N)n1
3. Cc1ncc(Cn2cc(CCn3cc(-c4ccc(F)cc4)nn3)nn2)c(N)n1

1. < 20%
2. < 20%
3. < 20%

Batch request: inhibition per item, same order as input.
1. COc1ccc(-c2cn(CCCc3cn(Cc4cnc(C)nc4N)nn3)nn2)cc1
2. COc1ccc(-c2cn(CCc3cn(Cc4cnc(C)nc4N)nn3)nn2)cc1

1. < 20%
2. < 20%

====

Would you mind telling me the reported pIC50 of each entry?
System: Pyruvate dehydrogenase E1 component subunit alpha, somatic form, mitochondrial (Sus scrofa)
Assay summary: Inhibition of porcine PDHc E1-subunit assessed as DCPIP reduction preincubated for 30 mins followed by pyruvate addition using 10 uM ThDP as substrate by microplate reader analysis
Numbers only, as −log10 of the molar value.

Cc1ncc(Cn2cc(CCCCC(=O)NO)nn2)c(N)n1 = 5.10

List reported pIC50 for each of these compounds:
1. COc1ccc(-c2cn(CCCCc3cn(Cc4cnc(C)nc4N)nn3)nn2)cc1
2. Cc1ncc(Cn2cc(CCCC(=O)NO)nn2)c(N)n1

5.22
5.05

====

System: Pyruvate dehydrogenase E1 component subunit alpha, somatic form, mitochondrial (Sus scrofa)
Sequence (P29804 whole entry): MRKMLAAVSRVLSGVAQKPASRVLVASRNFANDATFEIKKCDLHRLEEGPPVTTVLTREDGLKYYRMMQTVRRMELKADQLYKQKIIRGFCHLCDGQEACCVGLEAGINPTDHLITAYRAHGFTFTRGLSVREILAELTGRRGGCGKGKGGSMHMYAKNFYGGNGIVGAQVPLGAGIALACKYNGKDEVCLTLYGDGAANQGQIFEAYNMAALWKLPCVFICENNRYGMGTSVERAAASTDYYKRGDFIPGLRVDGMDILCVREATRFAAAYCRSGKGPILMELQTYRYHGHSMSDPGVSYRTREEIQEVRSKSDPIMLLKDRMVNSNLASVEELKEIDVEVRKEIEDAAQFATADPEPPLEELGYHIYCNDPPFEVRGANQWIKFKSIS
Assay summary: Inhibition of porcine PDHc E1-subunit assessed as inhibition constant preincubated for 30 mins followed by pyruvate addition using 10 uM ThDP as substrate by microplate reader analysis
Hi there, I'd appreciate the recorded pKi for every entry that follows.
Numbers only, as −log10 of the molar value.

Cc1ncc(Cn2cc(CCCCC(=O)NO)nn2)c(N)n1 = 7.40

Field: next compound
Item under review: "Cc1ncc(Cn2cc(CCCC(=O)NO)nn2)c(N)n1" . Reported pKi?
7.35
